Listing of entries alongside the reported Papp A→B.
- protocol: in vitro
- condition_notes: pig, LLC-PK1
Output spec: scalar in ×10⁻⁶ cm/s, unitless text.

Below, each entry is followed by its recorded Papp A→B result.
| compound | readout_units | Papp A→B |
| --- | --- | --- |
| N#CCn1c(N2CC3(C2)CC(F)(F)C3)c(-c2ccc(F)c(Cl)c2)c(=O)n(-c2cncc(Cl)c2)c1=O | ×10⁻⁶ cm/s | 6.17 |
| N#CCn1c(N2CC(O)(C(F)(F)F)C2)c(-c2ccc(F)c(Cl)c2)c(=O)n(-c2cncc(Cl)c2)c1=O | ×10⁻⁶ cm/s | 1.26 |

Read the next record carefully.
Param item = CC(C)(C)[C@H](NC(=O)C(F)(F)F)C(=O)N1C[C@H]2[C@@H]([C@H]1C(=O)N[C@H](C#N)C[C@@H]1CCNC1=O)C2(C)C [nirmatrelvir, reference compound] ; retrieve measured Papp A→B. 0.615

* * *

Listing of entries alongside the reported remaining at 0.5 h.
- protocol: in vitro
- condition_notes: both, human, microsomes
Output spec: scalar in %, unitless text.

| item_smiles | remaining at 0.5 h [%] |
| --- | --- |
| N#CCn1c(N2CC3(CCOC3)C2)c(-c2cccc(Cl)c2)c(=O)n(-c2cncc(Cl)c2)c1=O | 49 |
| Cc1cncc(-n2c(=O)c(Cc3cc(F)c(F)c(F)c3)c(N3CC4(C3)CC(F)(F)C4)n(CC#N)c2=O)c1 | 36 |
| N#CCn1c(N2CC3(C2)CC(F)(F)C3)c(-c2ccc(F)c(Cl)c2)c(=O)n(-c2cncc(Cl)c2)c1=O | 99 |

Read the next record carefully.
Param item = N#CCn1c(N2CC(F)(F)C2)c(-c2ccc(F)c(Cl)c2)c(=O)n(-c2cncc(Cl)c2)c1=O ; retrieve measured remaining at 0.5 h. 89

* * *

- protocol: in vivo
- condition_notes: female, cynomolgus monkey, iv, 0.1 mg/kg
Listing of entries alongside the reported clearance.
Output spec: scalar in mL/min/kg, unitless text.

| item_smiles | reported |
| --- | --- |
| N#CCn1c(N2CC3(C2)CC(F)(F)C3)c(-c2ccc(F)c(Cl)c2)c(=O)n(-c2cncc(Cl)c2)c1=O | 11.4 |

Read the next record carefully.
Param item = N#CCn1c(N2CC(O)(C(F)(F)F)C2)c(-c2ccc(F)c(Cl)c2)c(=O)n(-c2cncc(Cl)c2)c1=O ; retrieve measured clearance. 19.7

* * *

- System: MERS-CoV
- protocol: microbe, parasite or virus in culture
- Assay type: cell-based
- condition_notes: Middle East respiratory syndrome-related coronavirus, VeroE6/TMPRSS2, read-out: EC50 MERS-CoV
measurement_label: pEC50
Quick note: pEC50 values are minus log10 of concentrations in mol/L.

Param item = N#CCn1c(N2CC3(C2)CC(F)(F)C3)c(-c2ccc(F)c(Cl)c2)c(=O)n(-c2cncc(Cl)c2)c1=O [Compound 17] ; retrieve measured pEC50. 7.24

* * *

- target_desc: UniProt P04585
pIC50: −log10 of the molar value.
measurement_label: pIC50

Param item = N#CCn1c(N2CC3(C2)CC(F)(F)C3)c(-c2ccc(F)c(Cl)c2)c(=O)n(-c2cncc(Cl)c2)c1=O ; retrieve measured pIC50. < 5.00

* * *

- protocol: in vivo
- condition_notes: male, beagle, dog, iv, 0.1 mg/kg
measurement_label: clearance (mL/min/kg)
Output spec: scalar in mL/min/kg, unitless text.

| item_smiles | measurement_label | readout_units | reported |
| --- | --- | --- | --- |
| N#CCn1c(N2CC(O)(C(F)(F)F)C2)c(-c2ccc(F)c(Cl)c2)c(=O)n(-c2cncc(Cl)c2)c1=O | clearance | mL/min/kg | 4.59 |

Read the next record carefully.
Param item = N#CCn1c(N2CC3(C2)CC(F)(F)C3)c(-c2ccc(F)c(Cl)c2)c(=O)n(-c2cncc(Cl)c2)c1=O ; retrieve measured clearance. 2.52

* * *

- protocol: in vitro
- condition_notes: male, rat, microsomes
measurement_label: remaining at 0.5 h

Below, each entry is followed by its recorded remaining at 0.5 h result.
| compound | remaining at 0.5 h |
| --- | --- |
| N#CCn1c(N2CC3(CCOC3)C2)c(-c2ccc(F)c(Cl)c2)c(=O)n(-c2cncc(Cl)c2)c1=O [Compound 15] | 58% |
| Cc1cncc(-n2c(=O)c(Cc3cc(F)c(F)c(F)c3)c(N3CCC(C(F)(F)F)CC3)n(CC#N)c2=O)c1 [Compound 6] | 18% |

Read the next record carefully.
Param item = Cc1cncc(-n2c(=O)c(Cc3cc(F)c(F)c(F)c3)c(N3Cc4ccccc4C3)n(C)c2=O)c1 [Compound 3] ; retrieve measured remaining at 0.5 h. 1%

* * *

- Test system: Human Chymotrypsin
- Type: biochemical
pIC50: −log10 of the molar value.
measurement_label: pIC50

Param item = N#CCn1c(N2CC3(C2)CC(F)(F)C3)c(-c2ccc(F)c(Cl)c2)c(=O)n(-c2cncc(Cl)c2)c1=O ; retrieve measured pIC50. < 5.00

* * *

Listing of entries alongside the reported half-life.
- protocol: in vivo
- condition_notes: female, cynomolgus monkey, iv, 0.1 mg/kg
Output spec: scalar in h, unitless text.

| item_smiles | measurement_label | readout_units | reported |
| --- | --- | --- | --- |
| N#CCn1c(N2CC3(C2)CC(F)(F)C3)c(-c2ccc(F)c(Cl)c2)c(=O)n(-c2cncc(Cl)c2)c1=O | half-life | h | 7.02 |

Param item = N#CCn1c(N2CC(O)(C(F)(F)F)C2)c(-c2ccc(F)c(Cl)c2)c(=O)n(-c2cncc(Cl)c2)c1=O ; retrieve measured half-life. 3.48

* * *

Listing of entries alongside the reported half-life.
- protocol: in vivo
- condition_notes: male, beagle, dog, iv, 0.1 mg/kg
Please format your answer as a value with the unit trailing.

| item_smiles | half-life |
| --- | --- |
| N#CCn1c(N2CC3(C2)CC(F)(F)C3)c(-c2ccc(F)c(Cl)c2)c(=O)n(-c2cncc(Cl)c2)c1=O | 24.9 h |

Read the next record carefully.
Param item = N#CCn1c(N2CC(O)(C(F)(F)F)C2)c(-c2ccc(F)c(Cl)c2)c(=O)n(-c2cncc(Cl)c2)c1=O ; retrieve measured half-life. 8.74 h

* * *

- protocol: in vitro
- condition_notes: both, human, microsomes
Listing of entries alongside the reported remaining at 0.5 h.
Output spec: scalar in %, unitless text.

| item_smiles | readout_units | remaining at 0.5 h |
| --- | --- | --- |
| Cc1cncc(-n2c(=O)c(Cc3ccccc3)c(N3CC4(CCOC4)C3)n(CC#N)c2=O)c1 | % | 70 |
| Cc1cncc(-n2c(=O)c(Cc3cc(F)c(F)c(F)c3)c(N3CC4(CCOC4)C3)n(CC#N)c2=O)c1 | % | 58 |
| Cc1cncc(-n2c(=O)c(Cc3ccc(F)c(F)c3)c(N3CC4(CCOC4)C3)n(CC#N)c2=O)c1 | % | 55 |

Param item = Cc1cncc(-n2c(=O)c(Cc3cc(F)c(F)c(F)c3)c(N3Cc4ccccc4C3)n(C)c2=O)c1 ; retrieve measured remaining at 0.5 h. 1

Param item = N#CCn1c(N2CC3(CCOC3)C2)c(-c2ccc(F)c(Cl)c2)c(=O)n(-c2cncc(Cl)c2)c1=O ; retrieve measured remaining at 0.5 h. 55

Param item = Cc1cncc(-n2c(=O)c(Cc3cc(F)c(F)c(F)c3)c(N3CCCC3)n(CC#N)c2=O)c1 ; retrieve measured remaining at 0.5 h. 4

Param item = Cc1cncc(-n2c(=O)nc(N3Cc4ccccc4C3)n(Cc3cc(F)c(F)c(F)c3)c2=O)c1 ; retrieve measured remaining at 0.5 h. 49

* * *

- System: SARS-CoV-2 hCoV-19/Japan/TY/WK-521 strain
- protocol: microbe, parasite or virus in culture
- Type: cell-based
- condition_notes: Severe acute respiratory syndrome coronavirus 2, HEK-293T, read-out: HEK 293T-AT EC50
Listing of entries alongside the reported EC50.
Output spec: scalar in µM, unitless text.

Below, each entry is followed by its recorded EC50 result.
| item_smiles | target_desc | measurement_label | readout_units | reported |
| --- | --- | --- | --- | --- |
| Cc1cncc(-n2c(=O)c(Cc3cc(F)c(F)c(F)c3)c(N3CC4(CCOC4)C3)n(CC#N)c2=O)c1 | SARS-CoV-2 hCoV-19/Japan/TY/WK-521 strain | EC50 | µM | 0.0184 |
| N#CCn1c(N2CC3(C2)CC(F)(F)C3)c(-c2ccc(F)c(Cl)c2)c(=O)n(-c2cncc(Cl)c2)c1=O | SARS-CoV-2 hCoV-19/Japan/TY/WK-521 strain | EC50 | µM | 0.00248 |

Param item = Cc1cncc(-n2c(=O)c(Cc3cc(F)c(F)c(F)c3)c(N3CCC(C(F)(F)F)CC3)n(CC#N)c2=O)c1 ; retrieve measured EC50. 0.00941

Param item = N#CCn1c(N2CC3(CCOC3)C2)c(Cc2cc(F)c(F)c(F)c2)c(=O)n(-c2cncc(Cl)c2)c1=O ; retrieve measured EC50. 0.0253
